Data credit: the supplement of paper PMC11061612

System: EFM-19 (Breast Carcinoma)
Assay Method Text: combination Emax (second highest fraction inhibited in the dose matrix, 72 h); higher = more inhibition; extreme values may be limits of the assay
Assay Metric: combination Emax
// response body must contain only the number

{"Compound": "Cc1cc2ncnn2cc1Nc1ncc2c(n1)n(C1CCOCC1)c(=O)n2C [AZD7648] + C=CCn1c(=O)c2cnc(Nc3ccc(N4CCN(C)CC4)cc3)nc2n1-c1cccc(C(C)(C)O)n1 [AZD1775] (first compound max 10 µM, partner max 1 µM)", "combination Emax": 0.615}
{"Compound": "Cc1nc(Nc2ncc(C(=O)Nc3c(C)cccc3Cl)s2)cc(N2CCN(CCO)CC2)n1 [Dasatinib] + CC(=O)Nc1cccc(-n2c(=O)n(C3CC3)c(=O)c3c(Nc4ccc(I)cc4F)n(C)c(=O)c(C)c32)c1 [Trametinib] (first compound max 2 µM, 7x7, partner max 1 µM)", "combination Emax": 0.199}
{"Compound": "CS(=O)(=O)CCNCc1ccc(-c2ccc3ncnc(Nc4ccc(OCc5cccc(F)c5)c(Cl)c4)c3c2)o1 [Lapatinib] + C[C@@H](Oc1cc(-c2cnn(C3CCNCC3)c2)cnc1N)c1c(Cl)ccc(F)c1Cl [Crizotinib] (first compound max 10 µM, 7x7, partner max 10 µM)", "combination Emax": 0.554}

Request: Given CN(C)CCCOc1ccc(-c2ccc3ncc4c(c3c2)n(C2CCOCC2)c(=O)n4C)cn1 [AZD0156] + C[C@@H]1COCCN1C2=NC(=NC(=C2)C3(CC3)[S@](=N)(=O)C)C4=C5C=CNC5=NC=C4 [AZD6738] (first compound max 1 µM, 7x7, partner max 10 µM) , state its recorded combination Emax.
Result: 0.345

Request: Given CS(=O)(=O)CCNCc1ccc(-c2ccc3ncnc(Nc4ccc(OCc5cccc(F)c5)c(Cl)c4)c3c2)o1 [Lapatinib] + NC1(c2ccc(-c3nc4ccn5c(=O)[nH]nc5c4cc3-c3ccccc3)cc2)CCC1 [MK-2206] (first compound max 10 µM, 7x7, partner max 10 µM) , state its recorded combination Emax.
Result: 0.792

Request: Given N#Cc1cnc(Nc2cc(NC[C@H]3CNCCO3)c(C(F)(F)F)cn2)cn1 [SRA737] + C=CCn1c(=O)c2cnc(Nc3ccc(N4CCN(C)CC4)cc3)nc2n1-c1cccc(C(C)(C)O)n1 [AZD1775] (first compound max 10 µM, partner max 1 µM) , state its recorded combination Emax.
Result: 0.413

Request: Given COc1cccc(OCCCN)c1-c1cc(Nc2cnc(C#N)cn2)n[nH]1 [Prexasertib] + C=CCn1c(=O)c2cnc(Nc3ccc(N4CCN(C)CC4)cc3)nc2n1-c1cccc(C(C)(C)O)n1 [AZD1775] (first compound max 1 µM, partner max 1 µM) , state its recorded combination Emax.
Result: 0.62

Request: Given Cn1cnc2c(F)c(Nc3ccc(Br)cc3Cl)c(C(=O)NOCCO)cc21 [Selumetinib] + C[C@@H]1COCCN1C2=NC(=NC(=C2)C3(CC3)[S@](=N)(=O)C)C4=C5C=CNC5=NC=C4 [AZD6738] (first compound max 10 µM, 7x7, partner max 10 µM) , state its recorded combination Emax.
Result: 0.138

---

System: TGW (Neuroblastoma)
Assay Method Text: combination Emax (second highest fraction inhibited in the dose matrix, 72 h); higher = more inhibition; extreme values may be limits of the assay
Assay Metric: combination Emax
// response body must contain only the number

{"Compound": "COc1cc2c(cc1OCCCCCOc1cc3c(cc1OC)C(=O)N1C=C(C)C[C@H]1C=N3)N=C[C@@H]1CC(C)=CN1C2=O [SG3199] + O=C(c1cc(Cc2n[nH]c(=O)c3ccccc23)ccc1F)N1CCN(C(=O)C2CC2)CC1 [Olaparib] (first compound max 0.001 µM, 7x7, partner max 10 µM)", "Assay Metric": "combination Emax", "Measured": 0.166}
{"Compound": "C[C@@H](Nc1cc(F)cc(F)c1)c1cc(C(=O)N(C)C)cc2c(=O)cc(N3CCOCC3)oc12 [AZD8186] + CC(=O)c1c(C)c2cnc(Nc3ccc(N4CCNCC4)cn3)nc2n(C2CCCC2)c1=O [Palbociclib] (first compound max 10 µM, 7x7, partner max 10 µM)", "Assay Metric": "combination Emax", "Measured": 0.32}
{"Compound": "CN(C)CCCOc1ccc(-c2ccc3ncc4c(c3c2)n(C2CCOCC2)c(=O)n4C)cn1 [AZD0156] + CCN(CCO)CCCOc1ccc2c(Nc3cc(CC(=O)Nc4cccc(F)c4)[nH]n3)ncnc2c1 [AZD2811] (first compound max 1 µM, 7x7, partner max 1 µM)", "Assay Metric": "combination Emax", "Measured": 0.356}

API: the following record is the query input.
Request: Given COc1nnc2ccc(N3CCC(c4ccc(OCCN5CCN(C)C(=O)[C@H]5C)cc4)CC3)nn12 [AZD5153] + C=CCn1c(=O)c2cnc(Nc3ccc(N4CCN(C)CC4)cc3)nc2n1-c1cccc(C(C)(C)O)n1 [AZD1775] (first compound max 1 µM, partner max 1 µM) , state its recorded combination Emax.
Result: 0.674
